- Tested on: MCF7
- Test protocol: Cytotoxicity against human MCF7 cells after 96 hrs by SRB assay
- Type: functional, cell-based
- Settings: MCF7, 96 h
This listing pairs molecules with measured EC50.
Only the number, expressed in µM, is required.

Asked: GET EC50 where system = MCF7 and item = CC(=O)O[C@H]1CC[C@]2(C)[C@H]3CC[C@@H]4[C@H]5[C@H](/C(C)=N/O)CC[C@]5(C(=O)OCc5ccccc5)CC[C@@]4(C)[C@]3(C)CC[C@H]2C1(C)C
Given back: 6.8

Asked: Write down the reported EC50 (system: MCF7) of CC(=O)[C@@H]1CC[C@]2(C(=O)OCc3ccccc3)CC[C@]3(C)[C@H](CC[C@@H]4[C@@]5(C)CC[C@@H](N)C(C)(C)[C@@H]5CC[C@]43C)[C@@H]12
Given back: 1.9

Asked: # lookup: MCF7 EC50, key = COC(=O)[C@]12CC[C@@H](/C(C)=N/OC(C)=O)[C@@H]1[C@H]1CC[C@@H]3[C@@]4(C)CC[C@H](OC(C)=O)C(C)(C)[C@@H]4CC[C@@]3(C)[C@]1(C)CC2
Given back: 13.1

Asked: Given CCC(=O)O/N=C(\C)[C@@H]1CC[C@]2(C(=O)OC)CC[C@]3(C)[C@H](CC[C@@H]4[C@@]5(C)CC[C@H](OC(C)=O)C(C)(C)[C@@H]5CC[C@]43C)[C@@H]12 , report its EC50 on MCF7.
Given back: 13.4

Asked: Find EC50 for CC(=O)[C@@H]1CC[C@]2(C(=O)NCCN)CC[C@]3(C)[C@H](CC[C@@H]4[C@@]5(C)CC[C@H](O)C(C)(C)[C@@H]5CC[C@]43C)[C@@H]12 on MCF7 and write it down.
Given back: 2.4

Asked: Report its EC50 with MCF7 as the test system: COC(=O)[C@]12CC[C@@H](/C(C)=N\O)[C@@H]1[C@H]1CC[C@@H]3[C@@]4(C)CC[C@H](OC(C)=O)C(C)(C)[C@@H]4CC[C@@]3(C)[C@]1(C)CC2
Given back: 12.1

Asked: Give EC50 for this entry on MCF7: CC(=O)O[C@H]1CC[C@]2(C)[C@H]3CC[C@@H]4[C@H]5[C@H](C(C)=O)CC[C@]5(C(=O)NCCN(C)C)CC[C@@]4(C)[C@]3(C)CC[C@H]2C1(C)C
Given back: 2.5

Asked: Give the observed EC50 of CC(=O)O[C@H]1CC[C@]2(C)[C@H]3CC[C@@H]4[C@H]5[C@H](C(C)=O)CC[C@]5(C(=O)NCCN)CC[C@@]4(C)[C@]3(C)CC[C@H]2C1(C)C for MCF7.
Given back: 3.1

====

A collection of molecules and their measured pEC50
- Tested on: A2780
- Test protocol: Cytotoxicity against human A2780 cells after 96 hrs by SRB assay
- Assay type: functional, cell-based
- Settings: A2780, 96 h
The read-out pEC50 is expressed as -log10 of concentration in moles per litre.

item_smiles=CC(=O)OC[C@]12CC[C@@H]([C@@H](C)N)[C@@H]1[C@H]1CC[C@@H]3[C@@]4(C)CC[C@H](OC(C)=O)C(C)(C)[C@@H]4CC[C@@]3(C)[C@]1(C)CC2 tested_system=A2780 quantity_name=pEC50 reported_value=5.60

We now examine a further molecule.
Asked: Dear colleague, please send me the reported pEC50 for CC(=O)[C@@H]1CC[C@]2(C(=O)NCCN)CC[C@]3(C)[C@H](CC[C@@H]4[C@@]5(C)CC[C@H](O)C(C)(C)[C@@H]5CC[C@]43C)[C@@H]12 when you can.
Given back: 5.60

====

- System: HT-29
- Test protocol: cells
- Settings: Homo sapiens, HT-29, 96 h
- Description: Cytotoxicity against human HT-29 cells after 96 hrs by SRB assay
Quantity name: pEC50
Conceptually, pEC50 converts a concentration in mol/L into minus its log10.

item_smiles=C[C@@H](N)[C@@H]1CC[C@]2(CO)CC[C@]3(C)[C@H](CC[C@@H]4[C@@]5(C)CC[C@H](O)C(C)(C)[C@@H]5CC[C@]43C)[C@@H]12 tested_system=HT-29 reported_value=4.69
item_smiles=CC(=O)[C@@H]1CC[C@]2(C(=O)NCCN(C)C)CC[C@]3(C)[C@H](CC[C@@H]4[C@@]5(C)CC[C@H](O)C(C)(C)[C@@H]5CC[C@]43C)[C@@H]12 tested_system=HT-29 reported_value=5.41

Asked: State its pEC50: CC(=O)[C@@H]1CC[C@]2(C(=O)OCc3ccccc3)CC[C@]3(C)[C@H](CC[C@@H]4[C@@]5(C)CC[C@H](N)C(C)(C)[C@@H]5CC[C@]43C)[C@@H]12
Given back: 5.82

====

- System: 518A2
- Test protocol: Cytotoxicity against human 518A2 cells after 96 hrs by SRB assay
- Assay type: functional, cell-based
- Settings: 518A2, 96 h
Quantity name: EC50 (µM)
Write down the numeric answer in µM and omit the unit.

Asked: Item CC(=O)O[C@H]1CC[C@]2(C)[C@H]3CC[C@@H]4[C@H]5[C@H](C(C)=O)CC[C@]5(C(=O)NCCN5CCCC5)CC[C@@]4(C)[C@]3(C)CC[C@H]2C1(C)C : provide EC50
Given back: 3.3

Asked: State, in one line, measured EC50 of C[C@@H](N)[C@@H]1CC[C@]2(C(=O)OCc3ccccc3)CC[C@]3(C)[C@H](CC[C@@H]4[C@@]5(C)CC[C@H](O)C(C)(C)[C@@H]5CC[C@]43C)[C@@H]12
Given back: 7.5

====

- System: A2780
- Test protocol: Cytotoxicity against human A2780 cells after 96 hrs by SRB assay
- Format: functional, cell-based
- Settings: A2780, 96 h
Quantity name: pEC50
Lab note: report pEC50 as minus log10 of the concentration in molar units, number only.

item_smiles=COC(=O)[C@]12CC[C@@H]([C@@H](C)NC(C)=O)[C@@H]1[C@H]1CC[C@@H]3[C@@]4(C)CC[C@H](OC(C)=O)C(C)(C)[C@@H]4CC[C@@]3(C)[C@]1(C)CC2 quantity_name=pEC50 reported_value=4.56

Asked: Please respond with reported pEC50 (system A2780) for COC(=O)[C@]12CC[C@@H](/C(C)=N\O)[C@@H]1[C@H]1CC[C@@H]3[C@@]4(C)CC[C@H](OC(C)=O)C(C)(C)[C@@H]4CC[C@@]3(C)[C@]1(C)CC2 .
Given back: 4.89

Asked: Provide pEC50, tested on A2780, for COC(=O)[C@]12CC[C@@H](/C(C)=N/O)[C@@H]1[C@H]1CC[C@@H]3[C@@]4(C)CC[C@H](OC(C)=O)C(C)(C)[C@@H]4CC[C@@]3(C)[C@]1(C)CC2 .
Given back: 4.91

Asked: State measured pEC50 of the molecule CC(=O)O[C@H]1CC[C@]2(C)[C@H]3CC[C@@H]4[C@H]5[C@H](C(C)=O)CC[C@]5(C(=O)NCCN)CC[C@@]4(C)[C@]3(C)CC[C@H]2C1(C)C with A2780.
Given back: 5.49

Asked: GET pEC50 where system = A2780 and item = COC(=O)[C@]12CC[C@@H]([C@H](C)N)[C@@H]1[C@H]1CC[C@@H]3[C@@]4(C)CC[C@H](OC(C)=O)C(C)(C)[C@@H]4CC[C@@]3(C)[C@]1(C)CC2
Given back: 5.22

====

- System: 518A2
- Test protocol: Cytotoxicity against human 518A2 cells after 96 hrs by SRB assay
- Format: functional, cell-based
- Settings: 518A2, 96 h
Some compounds, each annotated with its measured pEC50.
// pEC50: -log10(molar conc.)

Reference set, count: 4
item_smiles=COC(=O)[C@]12CC[C@@H]([C@H](C)NC(C)=O)[C@@H]1[C@H]1CC[C@@H]3[C@@]4(C)CC[C@H](OC(C)=O)C(C)(C)[C@@H]4CC[C@@]3(C)[C@]1(C)CC2 reported_value=4.52
item_smiles=COC(=O)[C@]12CC[C@@H](/C(C)=N\O)[C@@H]1[C@H]1CC[C@@H]3[C@@]4(C)CC[C@H](OC(C)=O)C(C)(C)[C@@H]4CC[C@@]3(C)[C@]1(C)CC2 reported_value=5.01
item_smiles=CC(=O)OC[C@]12CC[C@@H]([C@@H](C)N)[C@@H]1[C@H]1CC[C@@H]3[C@@]4(C)CC[C@H](OC(C)=O)C(C)(C)[C@@H]4CC[C@@]3(C)[C@]1(C)CC2 reported_value=5.66
item_smiles=CC(=O)O[C@H]1CC[C@]2(C)[C@H]3CC[C@@H]4[C@H]5[C@H](/C(C)=N/O)CC[C@]5(C(=O)OCc5ccccc5)CC[C@@]4(C)[C@]3(C)CC[C@H]2C1(C)C reported_value=5.05

Would you kindly look at the next entry?
Asked: Identify measured pEC50 obtained with 518A2 for CC(=O)[C@@H]1CC[C@]2(C(=O)NCCN(C)C)CC[C@]3(C)[C@H](CC[C@@H]4[C@@]5(C)CC[C@H](O)C(C)(C)[C@@H]5CC[C@]43C)[C@@H]12 .
Given back: 5.44
